# subjectOfTest: T1, PUF4 RNA-binding domain (Saccharomyces cerevisiae, UniProt P25339 537-888)
# T1 sequence: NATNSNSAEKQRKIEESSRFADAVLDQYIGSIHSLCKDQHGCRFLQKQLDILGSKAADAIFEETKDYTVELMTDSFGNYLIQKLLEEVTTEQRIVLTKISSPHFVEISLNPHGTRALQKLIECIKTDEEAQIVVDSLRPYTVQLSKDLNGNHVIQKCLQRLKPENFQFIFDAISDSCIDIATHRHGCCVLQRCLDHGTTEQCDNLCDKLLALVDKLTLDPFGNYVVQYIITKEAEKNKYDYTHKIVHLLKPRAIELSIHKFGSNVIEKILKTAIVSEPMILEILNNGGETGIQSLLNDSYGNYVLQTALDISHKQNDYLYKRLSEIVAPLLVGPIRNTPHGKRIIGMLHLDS
# runDescription: Mg; RNA-MaP; 20 mM Na-HEPES pH 7.4, 30 mM KOAc, 0.75 mM MgCl2, 0.1% Tween-20, 5% glycerol, 0.1 mg/mL BSA, 2 mM DTT; 25 C; 0.0125-409.6 nM protein
# measurementParameters: tags: N-His6-TEV cleaved; C-SNAP kept, Cy3B-labelled; label: tethered on chip by stalled RNA polymerase
Each record here notes measured Kd.
quantityMeasured: Kd (µM)

binder	measuredNumber
Ie_S4_P5E.1_K5.1_C5.1_H5.1_[+3TTT]_A5.1_F5.1_T5.1 (ssRNA) RNA: UUUGACAACUGAUCGUUCUUUCUUGUUUUAUUAUUAUUCUUUCUCGAUCAGUUGUCUUU	0.0156
UCUCUUUGUAUUAUUCCCUAUCUCUU (ssRNA) [Ie_S1_P5E.1_K5.1_C5.1_H5.1_A5.1_F5.1_[+9CCCT]_T5.1]	0.0162
Ic_S4_P3E.1_K3.1_C3.1_H3.1_A3.1_[T5C]_[A6C]_F3.1_[T7C]_[A8T]_T3.1 (ssRNA) RNA: UUUGACAACUGAUCGUUCUUUCUUGUACCCUUUCUUUCUCGAUCAGUUGUCUUU	0.0142
Ie_S2_P3E.2_K3.1_C3.2_H3.1_[+3TC]_A3.1_F3.1_T3.2 (ssRNA) RNA: UUUGAUUAAUAUGAUAUCGUUCUUUCUCUUGUUCAUAUAUAUUCUUUCUCGAUAUCAUAUUAAUCUUU	0.0129
Ie_S4_P5E.1_K5.1_C5.1_H5.1_[+3TT]_A5.1_F5.1_T5.1 (ssRNA) RNA: UUUGACAACUGAUCGUUCUUUCUUGUUUAUUAUUAUUCUUUCUCGAUCAGUUGUCUUU	0.00889
